Assay: Antiproliferative activity against gefitinib-resistant human NCI-H1975 cells after 1 to 3 days by MTS assay
Format: functional
MEASUREMENT NAME: GI50 (µM)
Number in µM, nothing else.

# SMILES CODE, UOM, GI50
measured = [
    ("O=C(c1cc(Cl)c(O)cc1O)N1CCc2ccsc2C1", "µM", 8.7),
    ("O=C(c1cc(Cl)c(O)cc1O)N1CCN(c2ccccc2)CC1", "µM", 19.1),
    ("O=C(c1cc(Cl)c(O)cc1O)N1CCc2ccccc2C1", "µM", 19.9),
    ("CC(C)c1cc(C(=O)N2CCc3sccc3C2)c(O)cc1O", "µM", 0.31),
]

Turning to the following molecule.
Request: Any idea what its GI50 is? The molecule is "COC1=C2C[C@@H](C)C[C@H](OC)[C@H](O)[C@@H](C)/C=C(\C)[C@H](OC(N)=O)[C@@H](OC)/C=C\C=C(/C)C(=O)NC(=CC1=O)C2=O"
Response: 0.56

###

Target: Cytochrome P450 2D6 (Homo sapiens)
Sequence (P10635 whole entry): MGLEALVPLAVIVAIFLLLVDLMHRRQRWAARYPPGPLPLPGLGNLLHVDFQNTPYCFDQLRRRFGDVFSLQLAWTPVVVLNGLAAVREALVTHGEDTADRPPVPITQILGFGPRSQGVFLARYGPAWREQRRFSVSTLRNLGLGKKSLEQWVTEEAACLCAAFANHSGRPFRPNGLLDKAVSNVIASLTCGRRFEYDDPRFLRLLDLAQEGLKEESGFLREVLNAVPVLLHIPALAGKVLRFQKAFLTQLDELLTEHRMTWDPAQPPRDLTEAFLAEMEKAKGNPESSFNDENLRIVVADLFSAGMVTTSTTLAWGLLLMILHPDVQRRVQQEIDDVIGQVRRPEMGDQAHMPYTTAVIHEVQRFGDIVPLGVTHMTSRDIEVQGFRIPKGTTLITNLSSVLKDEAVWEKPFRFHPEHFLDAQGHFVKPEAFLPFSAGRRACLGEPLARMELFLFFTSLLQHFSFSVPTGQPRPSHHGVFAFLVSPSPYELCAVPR
pIC50: −log10 of the molar value.
MEASUREMENT NAME: pIC50

Request: Any idea what its pIC50 is? The compound is "CC(C)c1cc(C(=O)N2CCc3sccc3C2)c(O)cc1O"
Response: < 4.30

###

Target: Cytochrome P450 2C19 (Homo sapiens)
Sequence (P33261 whole entry): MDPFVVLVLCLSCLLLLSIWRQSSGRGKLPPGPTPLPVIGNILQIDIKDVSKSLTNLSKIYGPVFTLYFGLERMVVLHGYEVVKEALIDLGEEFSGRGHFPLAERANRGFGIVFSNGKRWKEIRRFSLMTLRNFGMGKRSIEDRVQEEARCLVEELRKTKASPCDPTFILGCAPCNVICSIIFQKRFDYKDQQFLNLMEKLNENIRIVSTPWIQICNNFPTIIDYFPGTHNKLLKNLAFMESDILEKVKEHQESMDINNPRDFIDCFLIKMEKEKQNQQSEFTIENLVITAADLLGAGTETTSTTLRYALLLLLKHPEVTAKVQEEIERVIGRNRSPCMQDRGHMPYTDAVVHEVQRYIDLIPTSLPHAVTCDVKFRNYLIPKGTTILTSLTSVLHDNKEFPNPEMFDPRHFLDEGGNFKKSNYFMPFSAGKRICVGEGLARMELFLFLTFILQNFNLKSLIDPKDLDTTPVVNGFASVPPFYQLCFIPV
pIC50: −log10 of the molar value.
MEASUREMENT NAME: pIC50

Request: Lab note: need pIC50 for "CC(C)c1cc(C(=O)N2CCc3sccc3C2)c(O)cc1O" on Cytochrome P450 2C19 (Homo sapiens), anyone have it?
Response: < 4.30

###

Biological target: UniProt P11712
Sequence (P11712 whole entry): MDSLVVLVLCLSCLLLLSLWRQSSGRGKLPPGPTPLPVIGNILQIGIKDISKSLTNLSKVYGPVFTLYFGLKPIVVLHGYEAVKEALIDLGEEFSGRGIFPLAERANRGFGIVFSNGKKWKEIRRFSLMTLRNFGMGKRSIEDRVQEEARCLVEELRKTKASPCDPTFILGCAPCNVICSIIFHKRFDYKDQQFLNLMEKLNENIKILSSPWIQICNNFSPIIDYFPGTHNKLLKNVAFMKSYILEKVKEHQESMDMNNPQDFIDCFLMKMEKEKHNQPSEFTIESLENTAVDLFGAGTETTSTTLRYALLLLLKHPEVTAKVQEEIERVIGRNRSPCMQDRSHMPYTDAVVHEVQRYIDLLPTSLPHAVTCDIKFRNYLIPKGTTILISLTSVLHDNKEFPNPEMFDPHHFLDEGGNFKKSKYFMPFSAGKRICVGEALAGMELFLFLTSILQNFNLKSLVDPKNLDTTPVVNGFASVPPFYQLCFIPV
pIC50: −log10 of the molar value.
MEASUREMENT NAME: pIC50

Request: Lab note: need pIC50 for "CC(C)c1cc(C(=O)N2CCc3sccc3C2)c(O)cc1O" on UniProt P11712, anyone have it?
Response: < 4.30

###

Target: CYP3A (Homo sapiens, UniProt P08684+P20815+P24462+Q9HB55)
Test: Inhibition of CYP3A in human liver microsomes assessed as midazolam 1'-hydroxylation by LC/MS/MS analysis
Type: ADME
Details: probe midazolam (1'-hydroxylation)
pIC50: −log10 of the molar value.
MEASUREMENT NAME: pIC50

Request: Any idea what its pIC50 is? The compound is "CC(C)c1cc(C(=O)N2CCc3sccc3C2)c(O)cc1O"
Response: < 4.30

###

Biological target: UniProtKB P07900
Test: Inhibition of fluorescein isothiocyanate labeled geldanamycin binding to N-terminal domain of full length human recombinant Hsp90alpha expressed in Escherichia coli BL21 (DE3) after 14 hrs by fluorescence polarization assay
MEASUREMENT NAME: IC50 (nM)
Number in nM, nothing else.

Request: Any idea what its IC50 is? The compound is "CC(C)c1cc(C(=O)N2CCc3sccc3C2)c(O)cc1O"
Response: 50.3

Request: Any idea what its IC50 is? The compound is "O=C(c1cc(Cl)c(O)cc1O)N1CCc2ccccc2C1"
Response: 183

Request: Any idea what its IC50 is? The compound is "O=C(c1cc(Cl)c(O)cc1O)N1CCc2ccsc2C1"
Response: 136

Request: Any idea what its IC50 is? The compound is "O=C(c1cc(Cl)c(O)cc1O)N1CCN(c2ccccc2)CC1"
Response: 481
